Cited source: patent US5861404A

This listing pairs compounds with measured IC50.
system: cGMP-specific PDE V; test: Inhibition of the phosphodiesterases in vitro: PDE V; type: biochemical; settings: PDE V from porcine small intestine, porcine aorta and/or human blood platelets; nucleotide 10^-6 mol/l; pH 7.5, 30 minutes

>  <compound>
CCCCCCC(C(C)O)n1cnc2c(=O)[nH]c(-c3ccc(Cl)cc3)nc21 (stereo not shown)

>  <unit-name>
µM

>  <IC50>
50

$$$$
>  <compound>
CC(CCCc1ccccc1)n1cnc2c(=O)[nH]c(-c3ccc4c(c3)OCO4)nc21 (stereo not shown)

>  <unit-name>
µM

>  <IC50>
10

$$$$
>  <compound>
CC(CCCc1ccccc1)n1cnc2c(=O)[nH]c(-c3ccc(-c4ccccc4)cc3)nc21 (stereo not shown)

>  <unit-name>
µM

>  <IC50>
1

$$$$
>  <compound>
CC(CCCc1ccccc1)n1cnc2c(=O)[nH]c(C3CC3)nc21 (stereo not shown)

>  <unit-name>
µM

>  <IC50>
0.3

$$$$
